pKi, Sodium-dependent serotonin transporter (Rattus norvegicus, UniProt P31652): measured values
pKi is defined as minus the log10 of a concentration measured in mol/L.

Incoming: Please give measured pKi of the following entry: Cc1c(F)cccc1OC(c1ccccc1)C1CCNCC1 (stereo unspecified)
Outgoing: 8.28

Incoming: Please give measured pKi of the following entry: Fc1ccc(OC(c2ccccc2)C2CCNCC2)cc1 (stereo in doubt; (+)-15p)
Outgoing: 9.40

Incoming: Please give measured pKi of the following entry: COc1cc2c(cc1OC)CN(CCC(Oc1ccccc1C(F)(F)F)c1ccccc1)CC2 (stereo unspecified)
Outgoing: 6.87

Incoming: Please give measured pKi of the following entry: Fc1cccc(OC(c2cccc(F)c2)C2CCNCC2)c1 (stereo in doubt; 15u)
Outgoing: 7.79

Incoming: Please give measured pKi of the following entry: Fc1ccc(OC(c2ccc(Cl)cc2)C2CCNCC2)cc1 (stereo unspecified)
Outgoing: 8.12

Next:
Incoming: Please give measured pKi of the following entry: Oc1cc(F)cc(OC(c2ccccc2)C2CCNCC2)c1 (stereo unspecified)
Outgoing: 8.70
